The reported numbers originate from paper PMC10318132.

# tested target: IDO1 (Homo sapiens, UniProt P14902)
# Sequence (P14902 whole entry): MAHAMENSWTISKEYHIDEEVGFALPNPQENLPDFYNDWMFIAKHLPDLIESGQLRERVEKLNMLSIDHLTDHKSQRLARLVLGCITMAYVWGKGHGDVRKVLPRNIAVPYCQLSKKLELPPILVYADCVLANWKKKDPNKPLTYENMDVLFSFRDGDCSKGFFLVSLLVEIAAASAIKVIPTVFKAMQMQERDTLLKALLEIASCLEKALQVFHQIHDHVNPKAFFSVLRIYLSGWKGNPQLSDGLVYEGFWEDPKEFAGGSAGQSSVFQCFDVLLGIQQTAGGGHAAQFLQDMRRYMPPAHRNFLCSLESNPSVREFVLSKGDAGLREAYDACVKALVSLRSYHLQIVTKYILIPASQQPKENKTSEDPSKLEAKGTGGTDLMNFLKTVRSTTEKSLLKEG
# experimental protocol: Hela cell-based functional assay of IDO1 inhibition (kynurenine read at 480 nm)
# stated conditions: Hela cells, 100 ng/mL human IFN-γ, 18 h; averages ±SD of two parallel experiments
readout type: IC50 (µM)
State the answer as a number, implicitly in µM.

Query: Find the recorded IC50 belonging to COc1ccc(NC(=O)NC(C)(C)c2cn(Cc3cccc(OC)c3)nn2)cc1 [Compound 3h] and report it.
Result: 5.82

Query: Suppose we examine the compound COc1ccc(NC(=O)NC(C)(C)c2cn(Cc3ccccc3Br)nn2)cc1 [Compound 3f] ; what IC50 value has been reported?
Result: 17.9

Query: For COc1ccc(NC(=O)NC(C)(C)c2cn(Cc3cccc(Br)c3)nn2)cc1 [Compound 3g] , what is its reported IC50?
Result: 1.73

Query: Entry under review: Cc1ccc(-c2csc3nnc(SCC(=O)Nc4ccc5c(c4)OCO5)n23)cc1 [Amg-1, reference compound] . Reported IC50?
Result: 3.97
